Experiment: Apparent volume of distribution during terminal phase in CD1 mouse at 200 mg/kg, po
Assay type: ADME, organism-based
Set-up: dose 200 mg/kg, route oral
Conditions: in vivo, read-out: Vz/F
Observation type: Vd/F (L/kg)

molecule="O=C(CCc1ccccc1)c1cc(F)ccc1OCC(O)CN1CCN(C(c2ccccc2)c2ccccc2)CC1 (stereo unspecified)" observation_type=Vd/F observed_result=276
molecule="O=C(CCc1ccccc1)c1cc(F)ccc1OCC(O)CN1CCC(c2ccccc2)CC1 (stereo unspecified)" observation_type=Vd/F observed_result=982
molecule="Cc1ccc(N2CCN(CC(O)COc3ccccc3C(=O)CCc3ccccc3)CC2)cc1 (stereo unspecified)" observation_type=Vd/F observed_result=272
molecule="O=C(CCc1ccccc1)c1ccccc1OCC(O)CN1CCN(C(c2ccccc2)c2ccccc2)CC1 (stereo unspecified)" observation_type=Vd/F observed_result=603
molecule="O=C(CCc1ccc(F)cc1)c1ccccc1OCC(O)CN1CCN(C(c2ccccc2)c2ccccc2)CC1 (stereo unspecified)" observation_type=Vd/F observed_result=288
molecule="O=C(CCc1ccccc1)c1ccccc1OCC(O)CN1CCC(c2ccccc2)CC1 (stereo unspecified)" observation_type=Vd/F observed_result=278

====

Assay: Apparent volume of distribution during terminal phase in CD1 mouse at 20 mg/kg, po
Format: ADME, organism-based
Set-up: dose 20 mg/kg, route oral
Details: CD1, mouse, in vivo, read-out: Vz/F
Observation type: Vd/F (L/kg)

compound="O=C(CCc1ccccc1)c1ccccc1OCC(O)CN1CCN(C(c2ccccc2)c2ccccc2)CC1 (stereo not drawn)" observation_type=Vd/F observed_result=318
compound="O=C(CCc1ccccc1)c1cc(F)ccc1OCC(O)CN1CCC(c2ccccc2)CC1 (stereo not drawn)" observation_type=Vd/F observed_result=224
compound="O=C(CCc1ccc(F)cc1)c1ccccc1OCC(O)CN1CCN(C(c2ccccc2)c2ccccc2)CC1 (stereo not drawn)" observation_type=Vd/F observed_result=370

====

Assay: Intrinsic clearance in […] mouse liver microsomes at 2 mM
Assay type: ADME, Microsome
Details: read-out: CLH
Observation type: CLint scaled

compound="O=C(CCc1ccccc1)c1ccccc1OCC(O)CN1CCN(C(c2ccccc2)c2ccccc2)CC1 (configuration not stated)" observation_type="CLint scaled" observed_result="70 mL/min/kg"
compound="O=C(CCc1ccccc1)c1cc(F)ccc1OCC(O)CN1CCN(C(c2ccccc2)c2ccccc2)CC1 (configuration not stated)" observation_type="CLint scaled" observed_result="34 mL/min/kg"

====

Test system: Plasmodium falciparum
Experiment: Antimalarial activity against Plasmodium falciparum 3D7 after 72 hrs by MSF assay
Type: functional, organism-based
Settings: 3D7, 72 h
Output Met for records whose EC90 is lower than 700 nM, Not met for records at or above 700 nM.

compound="Cc1ccc(N2CCN(CC(O)COc3ccccc3C(=O)CCc3ccccc3)CC2)cc1 (stereo unspecified)" label_class="Not met"
compound="O=C(CCc1ccccc1)c1ccccc1OCC(O)CN1CCC(c2ccccc2)CC1 (stereo unspecified)" label_class="Not met"
compound="O=C(CCc1ccccc1)c1cc(F)ccc1OCC(O)CN1CCC(c2ccccc2)CC1 (stereo unspecified)" label_class="Not met"
compound="O=C(CCc1ccccc1)c1ccccc1OCC(O)CN1CCN(C(c2ccccc2)c2ccccc2)CC1 (stereo unspecified)" label_class=Met
compound="O=C(CCc1ccccc1)c1cc(F)ccc1OCC(O)CN1CCN(C(c2ccccc2)c2ccccc2)CC1 (stereo unspecified)" label_class=Met
compound="O=C(CCc1ccc(F)cc1)c1ccccc1OCC(O)CN1CCN(C(c2ccccc2)c2ccccc2)CC1 (stereo unspecified)" label_class=Met
